Max MFI: recorded values
Target: T1, human CD24 (human, UniProt P25063 27-59, heavily glycosylated, GPI-anchored (as described in the background))
T1 construct: whole, on cells; Target of all cell-based FACS assays; also called hCD24; Cluster of differentiation 24
T1 chain (looked up): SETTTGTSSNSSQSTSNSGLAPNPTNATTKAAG
Assay: FACS, 293F-hCD24 cells
Form field (numeric): enter value without unit.

Example results:
[
  {
    "binder": "56A7E3 (antibody, V domains shown, mouse monoclonal antibody) VH: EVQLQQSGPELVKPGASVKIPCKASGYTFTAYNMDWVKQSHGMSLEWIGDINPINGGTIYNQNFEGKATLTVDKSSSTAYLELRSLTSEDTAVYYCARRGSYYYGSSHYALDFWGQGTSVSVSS VL: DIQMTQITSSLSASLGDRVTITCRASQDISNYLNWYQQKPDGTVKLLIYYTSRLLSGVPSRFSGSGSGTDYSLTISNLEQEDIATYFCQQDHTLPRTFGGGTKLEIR",
    "Max MFI": 26400
  },
  {
    "binder": "ch56A7E3-hIgG4 (antibody, V domains shown, chimeric) VH: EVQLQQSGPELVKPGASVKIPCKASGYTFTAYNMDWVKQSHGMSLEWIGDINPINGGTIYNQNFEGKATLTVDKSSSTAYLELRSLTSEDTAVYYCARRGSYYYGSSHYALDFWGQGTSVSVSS VL: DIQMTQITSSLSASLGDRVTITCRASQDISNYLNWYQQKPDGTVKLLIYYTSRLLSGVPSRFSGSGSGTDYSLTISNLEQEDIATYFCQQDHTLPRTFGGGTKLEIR",
    "Max MFI": 57100
  },
  {
    "binder": "73H5-1G2 (antibody, V domains shown, mouse monoclonal antibody) VH: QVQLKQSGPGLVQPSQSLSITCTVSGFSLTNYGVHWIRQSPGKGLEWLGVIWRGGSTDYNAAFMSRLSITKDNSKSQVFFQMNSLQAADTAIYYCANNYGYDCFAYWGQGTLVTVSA VL: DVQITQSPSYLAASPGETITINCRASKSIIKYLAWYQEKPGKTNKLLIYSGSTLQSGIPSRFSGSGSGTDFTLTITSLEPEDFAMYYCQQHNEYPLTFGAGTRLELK",
    "Max MFI": 20100
  },
  {
    "binder": "SN3 (antibody, V domains shown) VH: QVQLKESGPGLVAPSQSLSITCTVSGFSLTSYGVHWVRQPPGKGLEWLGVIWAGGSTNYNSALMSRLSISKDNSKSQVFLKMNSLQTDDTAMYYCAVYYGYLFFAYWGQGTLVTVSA VL: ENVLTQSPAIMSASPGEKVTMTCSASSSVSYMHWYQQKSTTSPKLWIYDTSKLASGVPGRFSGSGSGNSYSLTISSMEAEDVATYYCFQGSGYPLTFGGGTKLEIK",
    "Max MFI": 34100
  },
  {
    "binder": "81A1F8 (antibody, V domains shown, mouse monoclonal antibody) VH: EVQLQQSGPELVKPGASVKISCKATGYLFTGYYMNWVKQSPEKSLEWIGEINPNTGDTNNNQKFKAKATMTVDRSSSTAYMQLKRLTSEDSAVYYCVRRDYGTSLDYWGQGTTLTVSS VL: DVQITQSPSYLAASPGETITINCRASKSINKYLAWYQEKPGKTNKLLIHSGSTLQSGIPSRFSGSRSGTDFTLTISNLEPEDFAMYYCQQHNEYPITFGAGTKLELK",
    "Max MFI": 10300
  }
]

# input Returns the measured Max MFI for the input binder. Input: 58F10-1F6 (antibody, V domains shown, mouse monoclonal antibody) VH: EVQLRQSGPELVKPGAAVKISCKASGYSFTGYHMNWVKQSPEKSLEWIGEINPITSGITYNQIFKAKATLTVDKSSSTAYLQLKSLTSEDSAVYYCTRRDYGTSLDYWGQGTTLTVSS VL: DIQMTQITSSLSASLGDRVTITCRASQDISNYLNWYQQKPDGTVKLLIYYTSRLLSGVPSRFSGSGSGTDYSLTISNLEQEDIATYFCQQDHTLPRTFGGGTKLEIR
# output 58200

# input Try the binder 100F2E3 (antibody, V domains shown, mouse monoclonal antibody) VH: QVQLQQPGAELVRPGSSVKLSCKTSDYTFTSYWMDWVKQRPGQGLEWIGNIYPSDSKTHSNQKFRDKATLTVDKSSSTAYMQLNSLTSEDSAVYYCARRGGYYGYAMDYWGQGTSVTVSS VL: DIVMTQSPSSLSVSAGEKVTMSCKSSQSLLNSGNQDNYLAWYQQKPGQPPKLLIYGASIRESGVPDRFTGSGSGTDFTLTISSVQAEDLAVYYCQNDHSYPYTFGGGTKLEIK
# output 44100
